- target.system: Ste12 (UniProt P13574)
- Sequence (P13574 whole entry): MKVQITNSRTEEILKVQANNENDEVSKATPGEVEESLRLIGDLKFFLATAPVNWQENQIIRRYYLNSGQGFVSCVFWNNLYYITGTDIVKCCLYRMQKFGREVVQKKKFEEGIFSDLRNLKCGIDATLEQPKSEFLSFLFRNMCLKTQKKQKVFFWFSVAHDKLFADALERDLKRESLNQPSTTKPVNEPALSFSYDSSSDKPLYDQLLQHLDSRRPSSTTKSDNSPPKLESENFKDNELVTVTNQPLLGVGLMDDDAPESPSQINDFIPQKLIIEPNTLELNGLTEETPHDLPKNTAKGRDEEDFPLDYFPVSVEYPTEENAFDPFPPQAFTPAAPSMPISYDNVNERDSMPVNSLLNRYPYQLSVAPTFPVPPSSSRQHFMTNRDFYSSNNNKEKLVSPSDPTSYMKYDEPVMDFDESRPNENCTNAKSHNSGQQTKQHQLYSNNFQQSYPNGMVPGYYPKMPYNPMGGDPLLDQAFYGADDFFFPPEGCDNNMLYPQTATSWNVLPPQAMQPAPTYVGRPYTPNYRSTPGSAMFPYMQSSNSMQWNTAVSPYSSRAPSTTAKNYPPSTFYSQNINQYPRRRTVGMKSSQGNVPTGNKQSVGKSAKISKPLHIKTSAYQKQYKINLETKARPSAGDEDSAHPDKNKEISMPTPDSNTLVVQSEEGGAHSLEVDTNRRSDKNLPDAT
- assay.method.text: PBM E-score (8-mer binding enrichment) (E-score (-0.5 to 0.5)); higher = stronger / more preferred TF binding
- condition: protein concentration: 200 nM; construct: GST-DNA-binding domain
Whole data set: some 33,000 sequences, median “E-score (-0.5 to 0.5)” near -0.01, cut for the highest 2% near 0.26. The sample as a whole holds a higher share of the highest values than the screen did.
Category scheme (PBM E-score): I = under -0.02, II = from -0.02 up to 0.1, III = 0.1 and over

Problem: Just checking, what class would you give `CCAAGAAA` here?
Result: II

Problem: Just checking, what class would you give `GGTGGGTA` here?
Result: II

Problem: Just checking, what class would you give `CTCAACGA` here?
Result: I

Problem: Just checking, what class would you give `CCAGATCC` here?
Result: I

Problem: Just checking, what class would you give `AAAGCAAA` here?
Result: III

Problem: Just checking, what class would you give `AGTAGAAA` here?
Result: III

Problem: Just checking, what class would you give `AAACGGCG` here?
Result: III

Problem: Just checking, what class would you give `CAAACGTC` here?
Result: II

Problem: Just checking, what class would you give `AACTTTAA` here?
Result: III

Problem: Just checking, what class would you give `ACGTTCTC` here?
Result: II

Problem: Just checking, what class would you give `CTTTCAAA` here?
Result: III

Problem: Just checking, what class would you give `TAAACGTA` here?
Result: I

Problem: Just checking, what class would you give `GATAAAGA` here?
Result: II

Problem: Just checking, what class would you give `AGTAGAAC` here?
Result: I

Problem: Just checking, what class would you give `GCGGGGAA` here?
Result: III

Problem: Just checking, what class would you give `ACAGAATA` here?
Result: II

Problem: Just checking, what class would you give `CATTCATC` here?
Result: III

Problem: Just checking, what class would you give `CATAAAAA` here?
Result: III

Problem: Just checking, what class would you give `AGTTCAAA` here?
Result: III

Problem: Just checking, what class would you give `ACTCGAAT` here?
Result: I

Problem: Just checking, what class would you give `AGGTTTAG` here?
Result: II

Problem: Just checking, what class would you give `AGACAAGC` here?
Result: I

Problem: Just checking, what class would you give `GGTTCAAA` here?
Result: III

Problem: Just checking, what class would you give `AGCTAGCT` here?
Result: I

Problem: Just checking, what class would you give `ACTTTAAG` here?
Result: III

Problem: Just checking, what class would you give `CACTTTAA` here?
Result: III

Problem: Just checking, what class would you give `AGCTGTTG` here?
Result: I

Problem: Just checking, what class would you give `ATTTACAC` here?
Result: III

Problem: Just checking, what class would you give `AACTATGT` here?
Result: I

Problem: Just checking, what class would you give `ACATCTGA` here?
Result: I

Problem: Just checking, what class would you give `GCCTGGGA` here?
Result: I

Problem: Just checking, what class would you give `GGACCCGA` here?
Result: II

Problem: Just checking, what class would you give `CTCACCAC` here?
Result: I

Problem: Just checking, what class would you give `ATTTGAAA` here?
Result: III

Problem: Just checking, what class would you give `ACAGAAGG` here?
Result: I

Problem: Just checking, what class would you give `ACACTTCC` here?
Result: I

Problem: Just checking, what class would you give `AAAGATAT` here?
Result: III

Problem: Just checking, what class would you give `CGGGGAAA` here?
Result: III

Problem: Just checking, what class would you give `GGAATGGA` here?
Result: II

Problem: Just checking, what class would you give `ACTTTAAC` here?
Result: III

Problem: Just checking, what class would you give `GCGGGAAA` here?
Result: III

Problem: Just checking, what class would you give `GATTCGAC` here?
Result: III

Problem: Just checking, what class would you give `CTGTTGGA` here?
Result: II

Problem: Just checking, what class would you give `AAAAGAAC` here?
Result: III

This collection of values is drawn from the supplement of paper PMC3334620.
